target: Neuropeptide Y receptor type 4 (Homo sapiens, UniProt P50391)
Sequence (P50391 whole entry): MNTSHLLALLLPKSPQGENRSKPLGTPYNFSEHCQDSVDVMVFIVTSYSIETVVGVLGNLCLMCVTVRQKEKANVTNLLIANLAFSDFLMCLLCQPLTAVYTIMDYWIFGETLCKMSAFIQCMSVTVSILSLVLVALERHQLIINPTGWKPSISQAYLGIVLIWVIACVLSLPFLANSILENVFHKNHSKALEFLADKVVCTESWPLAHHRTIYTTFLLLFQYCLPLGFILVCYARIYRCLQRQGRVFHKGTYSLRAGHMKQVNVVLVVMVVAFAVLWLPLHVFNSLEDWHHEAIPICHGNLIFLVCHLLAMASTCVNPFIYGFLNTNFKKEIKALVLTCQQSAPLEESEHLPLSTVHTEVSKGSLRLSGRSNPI
EXPERIMENTAL READOUT: IC50

INPUT: Which IC50 value belongs to C[C@@H]1NC(c2cc(C#N)ccn2)=N[C@@]1(c1ccc(F)cc1)c1ccc(F)nc1 ?
OUTPUT: > 10 µM

====

experiment: AUC (0 to infinity) in Sprague-Dawley rat at 1 mg/kg, po administered as single dose; format: ADME, organism-based; set-up: time infinity, dose 1 mg/kg, route oral; conditions: plasma
EXPERIMENTAL READOUT: AUC(0-inf) (µM·h)
Numbers only, in µM·h.

INPUT: Which AUC(0-inf) value belongs to C[C@@H]1NC(c2cc(C#N)ccn2)=N[C@@]1(c1ccc(F)cc1)c1ccc(F)nc1 ?
OUTPUT: 1.8

====

Exercise: for every item that follows, state its recorded Kp at 2 h.
assay: Ratio of drug level from brain to plasma in Sprague-Dawley rat at 10 mg/kg, po after 2 hrs; assay type: ADME, organism-based; design: dose 10 mg/kg, route oral
Give bare numbers.

C[C@@H]1NC(c2cccc(C#N)c2)=N[C@@]1(c1ccc(F)cc1)c1ccc(F)nc1 2.3
C[C@@H]1NC(c2cccc(=O)[nH]2)=N[C@@]1(c1ccc(F)cc1)c1ccc(F)nc1 0.1
C[C@@H]1NC(c2ccnc(C#N)c2)=N[C@@]1(c1ccc(F)cc1)c1ccc(F)nc1 0.9

Working through the 3 molecules below one at a time, give Kp at 2 h for each.
1. C[C@@H]1NC(c2cncc(C#N)c2)=N[C@@]1(c1ccc(F)cc1)c1ccc(F)nc1
2. C[C@@H]1NC(c2cc(C#N)ccn2)=N[C@@]1(c1ccc(F)cc1)c1ccc(F)nc1
3. N#Cc1ccnc(C2=NC(c3ccc(F)cc3)(c3ccc(F)cc3)[C@H](CO)N2)c1

OUTPUT:
1. 1.2
2. 2.7
3. 2.1

====

test: Octanol-water distribution coefficient, log D at pH 7.4; type: physicochemical
Note to self: use y only for logD readings below 3; a reading exactly at 3 still gets n.

COc1ccc([C@]2(c3ccc(F)cc3)N=C(c3cc(C#N)ccn3)N[C@H]2C)cn1 n
C[C@@H]1NC(c2cccc(=O)[nH]2)=N[C@@]1(c1ccc(F)cc1)c1ccc(F)nc1 y
C[C@@H]1NC(c2cc(C#N)ccn2)=NC1(c1ccc(F)nc1)c1ccc(F)nc1 y
C[C@@H]1NC(c2cc(C#N)ccn2)=NC1(c1ccc(F)cc1)c1ccc(F)cc1 n
C[C@@H]1NC(c2cc(C#N)ccn2)=N[C@@]1(c1ccc(F)cc1)c1ccc(F)nc1 n

INPUT: Does the reported logD of C[C@@H]1NC(c2cc(C#N)ccn2)=N[C@]1(c1ccc(F)cc1)c1ccc(F)nc1 stay below 3?
OUTPUT: y

INPUT: Does the reported logD of Fc1ccc(C2(c3ccc(F)cc3)CNC(c3cnccn3)=N2)cc1 stay below 3?
OUTPUT: n

INPUT: Does the reported logD of C[C@@H]1NC(c2ccnc(C#N)c2)=N[C@@]1(c1ccc(F)cc1)c1ccc(F)nc1 stay below 3?
OUTPUT: n

====

Exercise: for every item that follows, state its recorded Ki.
Molecular target: Neuropeptide Y receptor type 5 (Homo sapiens)
Sequence (Q15761 whole entry): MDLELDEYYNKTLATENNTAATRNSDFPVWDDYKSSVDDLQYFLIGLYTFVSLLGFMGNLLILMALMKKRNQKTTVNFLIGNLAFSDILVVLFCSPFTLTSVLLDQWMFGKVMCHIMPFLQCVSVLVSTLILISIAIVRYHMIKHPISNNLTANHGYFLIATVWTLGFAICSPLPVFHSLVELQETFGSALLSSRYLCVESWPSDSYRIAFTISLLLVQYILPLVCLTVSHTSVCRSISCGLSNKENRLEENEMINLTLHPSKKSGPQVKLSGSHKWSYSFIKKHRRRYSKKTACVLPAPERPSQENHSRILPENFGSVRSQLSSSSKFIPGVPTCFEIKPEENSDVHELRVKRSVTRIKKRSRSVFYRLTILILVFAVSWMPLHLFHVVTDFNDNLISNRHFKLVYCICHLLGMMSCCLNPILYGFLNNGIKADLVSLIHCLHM
Test: Displacement of [125I]PYY from human recombinant neuropeptide Y5 receptor expressed in mouse LMtk- cells
Numbers only, in nM.

Examples from the recorded data:
N#Cc1ccnc(C2=NC(c3ccc(F)cc3)(c3ccc(F)cc3)[C@H](CO)N2)c1 3
CCC[C@@H]1NC(c2cc(C#N)ccn2)=NC1(c1ccc(F)cc1)c1ccc(F)cc1 8.6
C[C@@H]1NC(c2cccc(C#N)c2)=N[C@@]1(c1ccc(F)cc1)c1ccc(F)nc1 0.8
COc1ccnc(C2=N[C@@](c3ccc(F)cc3)(c3ccc(F)nc3)[C@H](C)N2)c1 2.5

Working through the 3 compounds below one at a time, give Ki for each.
1. C[C@@H]1NC(c2cc(C#N)ccn2)=N[C@@]1(c1ccc(F)cc1)c1ccc(=O)[nH]c1
2. N#Cc1ccnc(C2=NC(c3ccc(F)cc3)(c3ccc(F)cc3)CN2)c1
3. C[C@@H]1NC(c2cccc(C#N)n2)=N[C@@]1(c1ccc(F)cc1)c1ccc(F)nc1

OUTPUT:
1. 145
2. 2
3. 5.9

Working through the 4 compounds below one at a time, give Ki for each.
1. C[C@@H]1NC(c2cnsn2)=N[C@@]1(c1ccc(F)cc1)c1ccc(F)nc1
2. CC[C@@H]1NC(c2cc(C#N)ccn2)=NC1(c1ccc(F)cc1)c1ccc(F)cc1
3. C[C@@H]1NC(c2ccnc(C#N)c2)=N[C@@]1(c1ccc(F)cc1)c1ccc(F)nc1
4. COc1ccc([C@]2(c3ccc(F)cc3)N=C(c3cc(C#N)ccn3)N[C@H]2C)cn1

OUTPUT:
1: 2; 2: 2.6; 3: 1; 4: 1.1
